Examples of compounds with documented Percent Effect follow.
# Species on record: Homo sapiens
# experimentSummary: To identify inhibition of the IFN signalling (Jak-Stat) pathway via expression of an eGFP reporter gene under the control of an IFN-stimulated response element (ISRE) containing MxA promoter.
# Format: functional
# Design: scale not given: direction of the effect not stated beside the values
# particulars: 30 µM
measuredMetric: Percent Effect

{"compound": "O=C1CCSCC(C(=O)N2CCN(C3CCCCC3)CC2)N1 (stereo unspecified)", "experimentalValue": "-1.47%"}
{"compound": "Cc1ncc(CNC(=O)N(C)C2CCN(c3ccccc3)C2=O)s1 (stereo unspecified)", "experimentalValue": "15.1%"}
{"compound": "Cc1[nH]ccc1C(=O)N1CCC(c2nnc(Cn3cccn3)n2C)CC1", "experimentalValue": "-10.2%"}
{"compound": "Cc1ccc2oc(C(=O)N3CCCC(n4nc(C)cc4C)C3)cc2n1 (stereo unspecified)", "experimentalValue": "-2.91%"}
{"compound": "CCN(CC)C(=O)CCNC(=O)Cc1nc(-c2ccco2)oc1C", "experimentalValue": "-3.68%"}
{"compound": "Cc1ncc2c(n1)CN(CC(=O)Nc1ccncc1)CC2", "experimentalValue": "17.2%"}
